Target: Chromobox protein homolog 1 (Homo sapiens) (UniProt P83916)
Sequence (P83916 whole entry, looked up): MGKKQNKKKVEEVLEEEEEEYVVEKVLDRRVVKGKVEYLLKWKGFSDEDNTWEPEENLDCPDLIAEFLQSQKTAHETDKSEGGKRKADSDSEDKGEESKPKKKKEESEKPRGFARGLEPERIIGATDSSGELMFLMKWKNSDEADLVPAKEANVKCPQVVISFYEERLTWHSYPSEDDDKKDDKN
Assay: qHTS Validation Assay for Inhibitors of HP1-beta Chromodomain Interactions with Methylated Histone Tails (AID 488953); also: nearly all actives have a fitted effect of over 50% in size
Conditions: HP1-beta chromodomain / methylated histone peptide binding assay; series mostly up to 114 µM
Inconclusive results are not listed. The source made the active and inactive calls. Calls follow the shape of the dose curve; as a rule, active = well fitted inhibition curve with a large enough effect; inconclusive = small, poorly fitted or top-dose-only effect; inactive = no such curve, though single readings can be large or run the other way.
Choose the fitting class; nothing outside active, inactive is accepted.

[Li+] : inactive
O[Si](CCCN1CCCCC1)(c1ccc(F)cc1)C1CCCCC1 (centres undefined) : inactive
CCCCCCCCCCCCCCC[C@H](O)[C@H](N)CO : active
CCCn1c(=O)c2[nH]c(-c3ccc(S(=O)(=O)O)cc3)nc2n(CCC)c1=O : inactive
O=C(O)C1CN(CCCP(=O)(O)O)CCN1 (centres undefined) : inactive

Prompt: Hi team, can someone confirm the assay call for O=C1OC(=O)C2C3CCC(O3)C12 (centres undefined) ?
Completion: inactive

Prompt: Would you mind doing COc1cc(C(O)C(=O)O)ccc1O (centres undefined) as well?
Completion: inactive

Prompt: Consider next the molecule "O=C1Nc2ccc(I)cc2/C1=C/c1cc(Br)c(O)c(Br)c1" in the same way.
Completion: active

Prompt: Next up: "COc1ccc(CCN(C)CCc2ccc(OC)c(OC)c2)cc1OC"
Completion: inactive

###

Assay: qHTS for Inhibitors of ATXN expression: Validation of Cytotoxic Assay (AID 588349);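 also: cells exposed to compound for 72 hr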
Conditions: cytotoxicity counter-screen for ATXN expression inhibitors, cell viability; series mostly up to 57.1 µM
Inconclusive results are not listed. The source made the active and inactive calls. Calls follow the shape of the dose curve; as a rule, active = well fitted cell-killing curve with a large enough effect; inconclusive = small, poorly fitted or top-dose-only effect, or effect the other way; inactive = flat fitted curve, though single readings scatter.
Please answer using one outcome listed in active, inactive

Consider the worked cases shown below.
CSC(N)=NCCC[C@H](N)C(=O)O : inactive
NC1(C(=O)O)CCc2cc(C(=O)O)ccc21 (configuration not stated) : inactive
O=C(O)[C@H]1NCCC[C@H]1C(=O)O : inactive
CN(C)CCCc1cc(C(=O)Nc2ccc(-c3ccncc3)cc2)ccc1O : inactive

Prompt: Assay outcome for "COc1ccc(CCn2nnnc2C2(c3ccc(C)cc3)CC2)cc1" : what was it?
Completion: inactive

Prompt: Another molecule: "C#CCn1c(=O)c2c(ncn2C)n(C)c1=O"
Completion: inactive

Prompt: Another: "CC[n+]1c(/C=C/C=C2/N(C)c3ccccc3C2(C)C)sc2ccccc21"
Completion: active

###

Below, each of the compounds is paired with its reported activity value.
Target: Phenylethanolamine N-methyltransferase (Homo sapiens) (UniProt P11086)
Sequence (P11086 whole entry, looked up): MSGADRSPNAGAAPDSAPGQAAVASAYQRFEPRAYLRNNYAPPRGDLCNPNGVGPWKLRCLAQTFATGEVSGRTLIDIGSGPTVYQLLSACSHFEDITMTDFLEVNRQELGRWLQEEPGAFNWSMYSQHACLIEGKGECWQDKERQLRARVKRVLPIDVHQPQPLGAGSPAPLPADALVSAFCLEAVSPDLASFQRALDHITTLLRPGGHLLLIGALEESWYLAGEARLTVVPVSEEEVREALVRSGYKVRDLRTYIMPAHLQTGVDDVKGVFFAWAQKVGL
Test: Confirmatory Screen for Target Class Profiling of Small Molecule Inhibitors of Methyltransferases (AID 1745852)
Conditions: MTase-Glo luminescence, SAH detection, recombinant enzyme; measured here: PNMT max response; stronger effect = lower value
Answers without a unit are incomplete; give the number and then its unit.

Please review the following examples before continuing.
C=CCN1CCc2cc(O)c(O)cc2C(c2ccccc2)C1 (centres undefined) : -2.84%
NC/C=C\C(=O)O : 2.22%
NS(=O)(=O)c1cccc2c1c([N+](=O)[O-])cc1nc(O)c(O)nc12 : 1.61%

Now let's try a different one.
Prompt: Which activity value is on record for CC(O)C(O)[C@H]1CNc2nc(N)[nH]c(=O)c2N1 (some centres undefined) ?
Completion: -4.71%

###

Assay: qHTS for differential inhibitors of proliferation of Plasmodium falciparum line W2 (AID 1883);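 also: parasites grown with compound for 72 h before lysis and staining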
Conditions: Plasmodium falciparum W2 proliferation inhibition; series mostly up to 28.7 µM
Inconclusive results are not listed. Calls of active or inactive are those of the source. The call rests on the fitted dose curve; in most records, active means well fitted curve in the direction sought with a large enough effect; inconclusive means small, poorly fitted or top-dose-only effect, or another doubt; inactive means no such curve, though single readings can be large or run the other way.
# output must be one of active, inactive

Reference set (3 entries):
O=c1cc(O)cc(/C=C/c2ccc(O)c(O)c2)o1 : active
CC[N+](CC)(CC)CC(=O)Nc1c(C)cccc1C : inactive
COC(=O)C(C)(N)Cc1ccc(O)cc1 (centres undefined) : active

Prompt: Please indicate how the test categorized "COc1ccccc1N1CCN(CCCCNC(=O)c2ccc3ccccc3c2)CC1" .
Completion: active

###

Molecular target: ATPase family AAA domain-containing protein 5 (Homo sapiens) (UniProt Q96QE3)
Sequence (Q96QE3 whole entry, looked up, the tested form may be a part): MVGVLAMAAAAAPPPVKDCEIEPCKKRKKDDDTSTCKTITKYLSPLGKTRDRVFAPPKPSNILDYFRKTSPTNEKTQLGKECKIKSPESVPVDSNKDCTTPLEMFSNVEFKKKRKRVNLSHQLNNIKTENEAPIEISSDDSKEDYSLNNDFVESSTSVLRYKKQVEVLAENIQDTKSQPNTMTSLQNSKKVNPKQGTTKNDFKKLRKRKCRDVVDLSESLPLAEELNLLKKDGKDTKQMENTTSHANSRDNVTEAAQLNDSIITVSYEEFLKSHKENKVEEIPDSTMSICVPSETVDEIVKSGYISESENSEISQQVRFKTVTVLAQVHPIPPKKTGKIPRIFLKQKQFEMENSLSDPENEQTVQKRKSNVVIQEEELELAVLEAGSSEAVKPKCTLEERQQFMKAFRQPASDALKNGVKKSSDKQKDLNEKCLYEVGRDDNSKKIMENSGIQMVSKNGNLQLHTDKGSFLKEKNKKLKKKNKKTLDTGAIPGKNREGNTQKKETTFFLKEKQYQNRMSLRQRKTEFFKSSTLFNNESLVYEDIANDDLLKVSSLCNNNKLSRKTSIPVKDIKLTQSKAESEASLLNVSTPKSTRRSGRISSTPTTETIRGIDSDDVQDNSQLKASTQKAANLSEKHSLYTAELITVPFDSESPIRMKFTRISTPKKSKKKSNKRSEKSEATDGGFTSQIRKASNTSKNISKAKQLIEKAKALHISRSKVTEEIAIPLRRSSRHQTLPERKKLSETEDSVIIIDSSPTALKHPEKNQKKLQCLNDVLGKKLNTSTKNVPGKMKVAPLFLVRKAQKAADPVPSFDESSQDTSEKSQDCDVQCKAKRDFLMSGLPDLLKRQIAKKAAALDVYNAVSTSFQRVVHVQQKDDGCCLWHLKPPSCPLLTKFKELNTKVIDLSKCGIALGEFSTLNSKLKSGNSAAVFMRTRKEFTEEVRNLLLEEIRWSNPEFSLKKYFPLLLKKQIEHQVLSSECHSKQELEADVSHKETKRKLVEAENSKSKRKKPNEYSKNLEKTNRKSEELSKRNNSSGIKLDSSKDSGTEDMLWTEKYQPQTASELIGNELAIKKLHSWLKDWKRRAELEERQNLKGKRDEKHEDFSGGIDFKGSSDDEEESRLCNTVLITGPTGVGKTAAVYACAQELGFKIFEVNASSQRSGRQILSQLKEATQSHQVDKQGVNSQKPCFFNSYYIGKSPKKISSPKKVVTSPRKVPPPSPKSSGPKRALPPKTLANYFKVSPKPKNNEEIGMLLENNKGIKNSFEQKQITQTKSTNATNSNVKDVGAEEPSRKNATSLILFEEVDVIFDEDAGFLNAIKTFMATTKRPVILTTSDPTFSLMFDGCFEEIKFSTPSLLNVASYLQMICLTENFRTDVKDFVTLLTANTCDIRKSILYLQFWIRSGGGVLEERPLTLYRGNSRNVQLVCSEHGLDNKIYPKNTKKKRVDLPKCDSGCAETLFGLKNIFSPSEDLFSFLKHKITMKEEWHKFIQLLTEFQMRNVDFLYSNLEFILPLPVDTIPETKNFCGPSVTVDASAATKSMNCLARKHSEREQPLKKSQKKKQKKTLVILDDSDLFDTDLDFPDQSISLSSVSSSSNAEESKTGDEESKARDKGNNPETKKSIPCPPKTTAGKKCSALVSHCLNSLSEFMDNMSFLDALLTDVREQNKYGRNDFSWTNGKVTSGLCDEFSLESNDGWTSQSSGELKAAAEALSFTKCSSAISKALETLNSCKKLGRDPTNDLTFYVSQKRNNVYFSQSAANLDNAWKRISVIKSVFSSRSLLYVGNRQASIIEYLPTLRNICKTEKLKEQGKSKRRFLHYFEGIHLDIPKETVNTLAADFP
Test: Validation screen for small molecules that inhibit ELG1-dependent DNA repair in human embryonic kidney (HEK293T) cells expressing luciferase-tagged ELG1 (AID 493107); also: nearly all actives have a fitted effect of over 70% in size; also: potency is read from the fitted curve at half-maximal effect
Details: HEK293T ELG1-luciferase level, luminescence, 5-fluorouridine co-treatment, 16 h; series mostly up to 46.1 µM
Inconclusive results are not listed. Calls of active or inactive are those of the source. Calls follow the shape of the dose curve; as a rule, active = well fitted inhibition curve with a large enough effect; inconclusive = small, poorly fitted or top-dose-only effect, or effect the other way; inactive = flat fitted curve, though single readings scatter.
measured-quantity: Potency

CCCn1c(=O)c2c(ncn2C)n(CCC)c1=O : inactive
O[Si](CCCN1CCCCC1)(c1ccc(F)cc1)C1CCCCC1 (stereo not given) : inactive
Nc1nc2c(nc(Br)n2C2OC3COP(=O)(O)O[C@@H]3C2O)c(=O)[nH]1 (stereo not given in full) : inactive
COC1(C2=NCCN2)COc2ccccc2O1 (stereo not given) : inactive
O=C(N[C@@H](Cc1ccccc1)C(=O)CCl)OCc1ccccc1 : 8.2 µM (active)
O=C1NC(=O)c2cc(Nc3ccccc3)c(Nc3ccccc3)cc21 : 13 µM (active)
CCN1C(=O)C=CC1=O : inactive
CCN(c1nc(N)c(C(=O)N=C(N)N)nc1Cl)C(C)C : inactive

Prompt: For the compound shown here, "N#Cc1cc2nc(O)c(O)nc2cc1[N+](=O)[O-]" , give the reported Potency.
Completion: inactive

Prompt: "O=C(O)C1=CCCN(CCON=C(c2ccccc2)c2ccccc2)C1" ?
Completion: inactive

Prompt: Entry "O=C(O)Cc1c[nH]c2ccc(O)cc12" please
Completion: inactive

Prompt: Please do the same for "O=c1onc2cnc3ccccc3n12" as well.
Completion: inactive

Prompt: Query "CN1CCc2cc(Cl)c(O)cc2[C@@H](c2ccccc2)C1" next
Completion: inactive

Prompt: Next up: C=C(C)C1CC=C(C(=O)O)CC1 (stereo not given)
Completion: inactive

Prompt: Do the same for "c1ccc2c(c1)CC(N1CCN(c3cccc4c3OCCO4)CC1)C2" please
Completion: inactive

Prompt: What about "N#CC(C#N)=C(N)/C(C#N)=C/c1ccc(O)cc1" ?
Completion: inactive

###

Target: Flap endonuclease 1 (Homo sapiens) (UniProt P39748)
Sequence (P39748 whole entry, looked up): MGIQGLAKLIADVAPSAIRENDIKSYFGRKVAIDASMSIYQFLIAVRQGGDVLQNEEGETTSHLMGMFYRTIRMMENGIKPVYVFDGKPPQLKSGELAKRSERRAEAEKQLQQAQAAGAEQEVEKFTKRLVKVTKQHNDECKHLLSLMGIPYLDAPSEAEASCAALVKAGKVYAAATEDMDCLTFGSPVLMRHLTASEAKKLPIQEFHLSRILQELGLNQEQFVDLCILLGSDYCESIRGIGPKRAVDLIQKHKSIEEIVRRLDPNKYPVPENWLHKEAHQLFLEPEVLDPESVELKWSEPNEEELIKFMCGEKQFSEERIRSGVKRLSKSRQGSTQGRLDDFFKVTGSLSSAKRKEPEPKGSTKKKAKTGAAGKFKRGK
Test: qHTS Validation Assay for the Inhibitors of Human Flap endonuclease 1 (FEN1) (AID 488816)
Conditions: FEN1 nuclease activity, fluorogenic DNA substrate; series mostly up to 57.1 µM
The source made the active and inactive calls. Calls come from the whole dose curve; as a rule, active = well fitted inhibition curve with a large enough effect; inconclusive = small, poorly fitted or top-dose-only effect; inactive = flat fitted curve, though single readings scatter.
Classes to choose from: yes (1) = active, no (0) = inactive

Use the examples below as a reference point.
CC[n+]1c(/C=C/C=C2/N(C)c3ccccc3C2(C)C)sc2ccccc21 : yes (1)
NS(=O)(=O)c1cccc2c1c([N+](=O)[O-])cc1nc(O)c(O)nc12 : no (0)
C[C@@]1(C2CCCC2)Cc2cc(OCC(=O)O)c(Cl)c(Cl)c2C1=O : no (0)
CCCCCCCCCCC/C=C\C(C)(C)/C=C\CCCC(=O)O : no (0)
CC#CCOC(=O)c1c(C)nc2sc3c(c2c1N)CCC(O)C3 (stereo not given) : no (0)

Prompt: Test call, this compound: "CCCCCCCC/C=C\CCCCCCCC(=O)NCCc1ccc(O)c(O)c1"
Completion: no (0)

Prompt: Proceed to "NC(N)=[N+]1CCc2ccccc2C1"
Completion: no (0)

Prompt: Record: CCOC(=O)C12CC1/C(=N/O)c1ccccc1O2 (stereo not given)
Completion: no (0)

Prompt: Can you check "O=C(O)C1CCNCC1" next?
Completion: no (0)

Prompt: Note, next up: "Nc1ccc(N2C(=O)c3ccccc3C2=O)c(Cl)c1"
Completion: no (0)

###

Test: Nrf2 qHTS screen for inhibitors: Validation (AID 493153)
Settings: A549 ARE-Fluc reporter, 18-24 h; measured here: cytotoxicity max response
Results filed as inconclusive are left out.
measured-quantity: viability change (%)
Number only, in %; omit the unit.

Record excerpt, results attached:
COc1cc(/C=C(\C#N)C(=O)c2ccc(O)c(O)c2)cc(I)c1O : -22
O=[N+]([O-])c1cccc2cn[nH]c12 : -18.2
N=C(N)c1ccccc1 : 6.8
C#CC(N)CCC(=O)O (stereo unspecified) : 2.08

Prompt: // lookup viability change for "O=c1cc(-c2ccccc2)[nH]c2nc(Cl)ccc12"
Completion: -13.6

Prompt: Same for "COc1ccccc1N1CCN(CCCCN2C(=O)c3ccccc3C2=O)CC1"
Completion: 4.76

###

Test: qHTS for differential inhibitors of proliferation of Plasmodium falciparum line 7G8 (AID 1815);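 also: parasite growth measured after three days of incubation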
Details: Plasmodium falciparum 7G8 proliferation inhibition; series mostly up to 28.7 µM
Records with an inconclusive call do not appear. Calls of active or inactive are those of the source. The call rests on the fitted dose curve; in most records, active means well fitted curve in the direction sought with a large enough effect; inconclusive means small, poorly fitted or top-dose-only effect, or another doubt; inactive means no such curve, though single readings can be large or run the other way.
The reply should be one of these categories: active, inactive

# count of solved cases: 6
Nc1ncnc2c1ncn2C1CCCO1 (configuration not stated) : inactive
C[C@@]1(C2CCCC2)Cc2cc(OCC(=O)O)c(Cl)c(Cl)c2C1=O : inactive
C[C@H](NC(=O)/C(C#N)=C/c1ccc(O)c(O)c1)c1ccccc1 : active
CCCCC[C@H](CC(=O)NO)C(=O)N[C@H](C(=O)N1CCC[C@H]1CO)C(C)C : active
CC(C)Cn1c(=O)n(C)c(=O)c2[nH]cnc21 : inactive
N[C@H](C(=O)O)[C@H](O)C(=O)O : inactive

Could you now consider this next compound?
Prompt: I would be grateful if you could indicate the recorded call for O=C(O)C1CCCNC1 (configuration not stated) .
Completion: inactive
